testedOn: PYCR3 (Homo sapiens, UniProt Q53H96)
Sequence (Q53H96 11-274): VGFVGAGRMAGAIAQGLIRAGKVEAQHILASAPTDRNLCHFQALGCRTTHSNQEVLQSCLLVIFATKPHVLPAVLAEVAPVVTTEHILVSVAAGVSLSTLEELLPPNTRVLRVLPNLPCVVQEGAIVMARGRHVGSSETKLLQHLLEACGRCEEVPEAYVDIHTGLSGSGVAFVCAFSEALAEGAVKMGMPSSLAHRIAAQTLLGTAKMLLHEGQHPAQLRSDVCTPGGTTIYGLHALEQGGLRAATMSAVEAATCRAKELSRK
protocol: Competitive
Format: biochemical
recordedConditions: read-out: Ki, apparent competitive (with L-P5C) inhibition constant; pH 7.5, 26°C, NADH fixed at 175 μM
parameterMeasured: Ki (µM)
Respond numerically; units are µM and should not be typed.

O=CN1CCC[C@H]1C(=O)O has a reported Ki of 1200

---

testedOn: UniProtKB Q53H96
protocol: Competitive
Type: biochemical
recordedConditions: Ki, apparent competitive (with L-P5C) inhibition constant, pH 7.5, 26°C, NADH fixed at 175 μM
parameterMeasured: pKi
Scale explanation: pKi corresponds to minus log10 of a concentration expressed in moles per litre.

Tested on UniProtKB Q53H96: O=C(O)[C@@H]1CCCN1 . Observed pKi: 2.24
